The origin of these recorded values is ChEMBL document CHEMBL4828718.

- Tested on: Cryptococcus neoformans
- assayExplanation: Antifungal activity against Cryptococcus neoformans ATCC 90113 assessed as fungal growth inhibition incubated for 72 hrs by alamar blue assay
- Assay type: functional
- measurementConditions: Cryptococcus neoformans, ATCC 90113, 72 h, read-out: MIC
Listing of recorded MIC by entry.
Could you give me the number in µM? Just the number is fine.

get_value(item= CCCCCCCCCCCCCCC1(O)C(C)=C(C)C2=[N+](CC(=O)NCCCN)CCCN21 (stereo not given) , readout=MIC) returns 3.8

get_value(item= CCCCCCCCCCCCCCC1(O)C(C)=C(C)C2=[N+](CC(=O)c3cccc(Cl)c3)CCCN21 (stereo not given) , readout=MIC) returns 3.7

get_value(item= CCCCCCCCCCCCCCc1c(C)c(C)cn1CCCNC , readout=MIC) returns 3.3

Continuing:
get_value(item= CCCCCCCCCCCCCCC1(O)C(C)=C(C)C2=[N+](Cc3ccc(F)cc3)CCCN21 (stereo not given) , readout=MIC) returns 1.5

get_value(item= CCCCCCCCCCCCCCC1(O)C(C)=C(C)C2=[N+](Cc3ccc(Cl)cc3)CCCN21 (stereo not given) , readout=MIC) returns 3.7

====

- System: Vero
- assayExplanation: Cytotoxicity against African green monkey Vero cells assessed as reduction in cell viability incubated for 48 hrs by neutral red dye based assay
- Parameters: species or system Chlorocebus sabaeus
- measurementConditions: Chlorocebus sabaeus, Vero, 48 h
Listing of recorded IC50 by entry.

// solved cases for IC50 follow
get_value(item= CCCCCCCCCCCCCCC1(O)C(C)=C(C)C2=[N+](Cc3cc(C(F)(F)F)cc(C(F)(F)F)c3)CCCN21 (centres undefined) , readout=IC50) returns > 37 µM

get_value(item= C=CC[N+]1=C2C(C)=C(C)C(O)(CCCCCCCCCCCCCC)N2CCC1 (centres undefined) , readout=IC50) returns 32 µM

get_value(item= CCCCCCCCCCCCCCC1(O)C(C)=C(C)C2=[N+](Cc3ccccc3)CCCN21 (centres undefined) , readout=IC50) returns 25 µM

get_value(item= CCCCCCCCCCCCCCC1(O)C(C)=C(C)C2=[N+](Cc3ccc(F)cc3F)CCCN21 (centres undefined) , readout=IC50) returns 28 µM

get_value(item= CCCCCCCCCCCCCCC1(O)C(C)=C(C)C2=[N+](Cc3ccc4ccccc4c3)CCCN21 (centres undefined) , readout=IC50) returns 42 µM

Continuing:
get_value(item= CCCCCCCCCCCCCCC1(O)C(C)=C(C)C2=[N+](Cc3ccc(F)cc3)CCCN21 (centres undefined) , readout=IC50) returns 33 µM

get_value(item= CCCCCCCCCCCCCCC1(O)C(C)=C(C)C2=[N+](C/C=C/c3ccccc3)CCCN21 (centres undefined) , readout=IC50) returns 38 µM

get_value(item= CCCCCCCCCCCCCCC1(O)C(C)=C(C)C2=[N+](CC(=O)c3cccs3)CCCN21 (centres undefined) , readout=IC50) returns 27 µM

get_value(item= CCCCCCCCCCCCCCC1(O)C(C)=C(C)C2=[N+](CC(=O)O)CCCN21 (centres undefined) , readout=IC50) returns > 50 µM

====

- Test system: Vero
- assayExplanation: Cytotoxicity against African green monkey Vero cells assessed as reduction in cell viability incubated for 48 hrs by neutral red dye based assay
- Parameters: species or system Chlorocebus sabaeus
- measurementConditions: Chlorocebus sabaeus, Vero, 48 h
testReadout: IC50

get_value(item= CCCCCCCCCCCCCCC1(O)C(C)=C(C)C2=[N+](CC(=O)NCCCN)CCCN21 (stereo unspecified) , readout=IC50) returns > 45 µM

Continuing:
get_value(item= CCCCCCCCCCCCCCC1(O)C(C)=C(C)C2=[N+](Cc3ccc(C(F)(F)F)cc3)CCCN21 (stereo unspecified) , readout=IC50) returns > 42 µM

get_value(item= C[C@@H]1[C@H](O)[C@@H](C)/C=C/C=C/C=C/C=C/C=C/C=C/C=C/[C@H](O[C@@H]2O[C@H](C)[C@@H](O)[C@H](N)[C@@H]2O)C[C@@H]2O[C@](O)(C[C@@H](O)C[C@@H](O)[C@H](O)CC[C@@H](O)C[C@@H](O)CC(=O)O[C@H]1C)C[C@H](O)[C@H]2C(=O)O , readout=IC50) returns 6.8 µM

get_value(item= CCCCCCCCCCCCCCC1(O)C(C)=C(C)C2=[N+](CC(=O)NCCOCCOCCOCCNC(=O)CCCC[C@@H]3SC[C@@H]4NC(=O)N[C@@H]43)CCCN21 (stereo partly specified) , readout=IC50) returns > 28 µM

get_value(item= CCCCCCCCCCCCCCC1(O)C(C)=C(C)C2=[N+](Cc3cccc(OC)c3)CCCN21 (stereo unspecified) , readout=IC50) returns 24 µM

get_value(item= CCCCCCCCCCCCCCC1(O)C(C)=C(C)C2=[N+](CC(=O)NCCCNC(=O)OC(C)(C)C)CCCN21 (stereo unspecified) , readout=IC50) returns > 38 µM

====

Listing of recorded MIC by entry.
- System: Cryptococcus neoformans
- assayExplanation: Antifungal activity against Cryptococcus neoformans ATCC 90113 assessed as fungal growth inhibition incubated for 72 hrs by alamar blue assay
- Assay type: functional
- measurementConditions: Cryptococcus neoformans, ATCC 90113, 72 h, read-out: MIC
Form entry: enter the amount, then its unit.

// solved cases for MIC follow
get_value(item= CCCCCCCCCCCCCCC1(O)C(C)=C(C)C2=[N+](Cc3cccc(C(F)(F)F)c3)CCCN21 (centres undefined) , readout=MIC) returns 1.3 µM

get_value(item= C#CC[N+]1=C2C(C)=C(C)C(O)(CCCCCCCCCCCCCC)N2CCC1 (centres undefined) , readout=MIC) returns 1.5 µM

get_value(item= CCCCCCCCCCCCCCC1(O)C(C)=C(C)C2=[N+](Cc3cccc(OC)c3)CCCN21 (centres undefined) , readout=MIC) returns 1.1 µM

Continuing:
get_value(item= CCCCCCCCCCCCCCC1(O)C(C)=C(C)C2=[N+](Cc3ccc(OC)cc3)CCCN21 (centres undefined) , readout=MIC) returns 1.1 µM

====

- System: Pichia kudriavzevii
- assayExplanation: Antifungal activity against Candida krusei ATCC 6258 assessed as fungal growth inhibition incubated for 18 to 24 hrs by alamar blue assay
- Assay type: functional
- measurementConditions: Pichia kudriavzevii, ATCC 6258, time 18-24 hrs; read-out: MIC
testReadout: MIC (µM)
Could you give me the number in µM? Just the number is fine.

The reported Pichia kudriavzevii MIC of CCCCCCCCCCCCCCC1(O)C(C)=C(C)C2=[N+](Cc3cccc(C(F)(F)F)c3)CCCN21 (centres undefined) is 2.8

Continuing:
The reported Pichia kudriavzevii MIC of CCCCCCCCCCCCCCC1(O)C(C)=C(C)C2=[N+](Cc3ccc([N+](=O)[O-])cc3)CCCN21 (centres undefined) is 1.7

The reported Pichia kudriavzevii MIC of CCCCCCCCCCCCCCC1(O)C=CC2=[N+](C)CCCN21 (centres undefined) is 2.1

The reported Pichia kudriavzevii MIC of CCCCCCCCCCCCCCC1(O)C(C)=C(C)C2=[N+](Cc3ccc(Cl)cc3)CCCN21 (centres undefined) is 2.1

====

- Test system: Aspergillus fumigatus
- assayExplanation: Fungicidal activity against Aspergillus fumigatus ATCC 90906 assessed as fungal growth inhibition incubated for 72 hrs by alamar blue assay
- Format: functional
- measurementConditions: Aspergillus fumigatus, ATCC 90906, 72 h, read-out: MFC
Listing of recorded MFC by entry.
Could you give me the number in µM? Just the number is fine.

get_value(item= CCCCCCCCCCCCCCC1(O)C(C)=C(C)C2=[N+](C/C=C/c3ccccc3)CCCN21 (stereo unspecified) , readout=MFC) returns 5.9

get_value(item= CCCCCCCCCCCCCCC1(O)C(C)=C(C)C2=[N+](Cc3ccc(OC)cc3)CCCN21 (stereo unspecified) , readout=MFC) returns 5.1

get_value(item= CCCCCCCCCCCCCCC1(O)C(C)=C(C)C2=[N+](Cc3cc(OC)c(OC)c(OC)c3)CCCN21 (stereo unspecified) , readout=MFC) returns 4

get_value(item= CCCCCCCCCCCCCCC1(O)C(C)=C(C)C2=[N+](Cc3ccc(C#N)cc3)CCCN21 (stereo unspecified) , readout=MFC) returns 4.5

get_value(item= CCCCCCCCCCCCCCC1(O)C(C)=C(C)C2=[N+](CC(=O)NCCCNC(=O)OC(C)(C)C)CCCN21 (stereo unspecified) , readout=MFC) returns 15

get_value(item= CCCCCCCCCCCCCCC1(O)c2ccccc2C2=[N+](C)CCCN21 (stereo unspecified) , readout=MFC) returns 35

get_value(item= CCCCCCCCCCCCCCC1(O)C(C)=C(C)C2=[N+](CC(=O)c3cccs3)CCCN21 (stereo unspecified) , readout=MFC) returns 8.8

get_value(item= C#CC[N+]1=C2C(C)=C(C)C(O)(CCCCCCCCCCCCCC)N2CCC1 (stereo unspecified) , readout=MFC) returns 5.2

get_value(item= CCCCCCCCCCCCCCC1(O)C(C)=C(C)C2=[N+](Cc3ccc(Br)cc3)CCCN21 (stereo unspecified) , readout=MFC) returns 8.2

get_value(item= CCCCCCCCCCCCCCC1(O)C(C)=C(C)C2=[N+](CC(=O)OCC)CCCN21 (stereo unspecified) , readout=MFC) returns 9.4

get_value(item= CCCCCCCCCCCCCCC1(O)C(C)=C(C)C2=[N+](Cc3ccc([N+](=O)[O-])cc3)CCCN21 (stereo unspecified) , readout=MFC) returns 5

get_value(item= CCCCCCCCCCCCCCC1(O)C(C)=C(C)C2=[N+](Cc3ccc(F)cc3F)CCCN21 (stereo unspecified) , readout=MFC) returns 3.7
